Test system: Canis familiaris
Experiment: Clearance in Beagle dog at 0.5 mg/kg by LCMS/MS method
Conditions: in vivo
measured.quantity: clearance (mL/min/kg)

{"cpd.smiles": "COc1nn(C)c2ncnc(NS(=O)(=O)c3cccc(Cl)c3Cl)c12", "measured.quantity": "clearance", "quantitative.readout": 4}

----------
Target: albumin (Homo sapiens, UniProt P02768)
Sequence (P02768 whole entry): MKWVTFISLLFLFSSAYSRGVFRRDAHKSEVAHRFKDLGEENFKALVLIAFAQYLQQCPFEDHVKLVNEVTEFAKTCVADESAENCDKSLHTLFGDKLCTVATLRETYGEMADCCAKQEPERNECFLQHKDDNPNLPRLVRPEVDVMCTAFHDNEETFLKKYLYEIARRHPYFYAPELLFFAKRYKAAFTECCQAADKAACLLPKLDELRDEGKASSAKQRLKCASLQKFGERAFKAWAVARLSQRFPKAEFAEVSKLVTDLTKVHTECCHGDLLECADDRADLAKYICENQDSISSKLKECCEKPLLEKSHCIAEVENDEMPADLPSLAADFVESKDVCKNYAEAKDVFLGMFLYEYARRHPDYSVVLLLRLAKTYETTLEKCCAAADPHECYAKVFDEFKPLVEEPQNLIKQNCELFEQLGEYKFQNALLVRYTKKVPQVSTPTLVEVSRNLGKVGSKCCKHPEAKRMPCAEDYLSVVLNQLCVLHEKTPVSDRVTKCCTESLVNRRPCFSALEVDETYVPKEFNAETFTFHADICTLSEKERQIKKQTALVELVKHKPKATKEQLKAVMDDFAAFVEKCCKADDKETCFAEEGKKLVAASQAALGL
Assay: Binding affinity to HSA
Type: ADME
Conditions: human serum albumin (HSA), read-out: PB (converted)
Reported fraction unbound values follow for various compounds

{"cpd.smiles": "COc1cccc2c1c(NS(=O)(=O)c1cccc(Cl)c1Cl)nn2C", "fraction unbound": 0.023}
{"cpd.smiles": "COc1nn(C)c2ncnc(NS(=O)(=O)c3cccc(Cl)c3Cl)c12", "fraction unbound": 0.015}
{"cpd.smiles": "COc1nn(C)c2ncnc(NS(=O)(=O)c3ccc(Cl)s3)c12", "fraction unbound": 0.023}

----------
Test: Oral bioavailability in Beagle dog at 1 mg/kg by LCMS/MS method
Type: ADME, organism-based, Canis lupus familiaris
Conditions: in vivo

{"cpd.smiles": "COc1nn(C)c2ncnc(NS(=O)(=O)c3cccc(Cl)c3Cl)c12", "bioavailability [%]": 100}

----------
Test: Lipophilicity, log D of the compound by chromatographic analysis
Type: physicochemical
Collected chromatographic logD values appear next to each entry.
measured.quantity: chromatographic logD

{"cpd.smiles": "COc1nn(C)c2nc(C)nc(NS(=O)(=O)c3cccc(Cl)c3Cl)c12", "quantitative.readout": 3.4}
{"cpd.smiles": "CNC(=O)Cn1nc(OC)c2c(NS(=O)(=O)c3cccc(Cl)c3Cl)ncnc21", "quantitative.readout": 1.3}
{"cpd.smiles": "COc1nn(C)c2nc(NC(C)C)nc(NS(=O)(=O)c3cccc(Cl)c3Cl)c12", "quantitative.readout": 5.2}
{"cpd.smiles": "COc1nn(C(C)C)c2ncnc(NS(=O)(=O)c3cccc(Cl)c3Cl)c12", "quantitative.readout": 4.5}
{"cpd.smiles": "Cn1ncc2c(NS(=O)(=O)c3cccc(Cl)c3Cl)ncnc21", "quantitative.readout": 1.7}
{"cpd.smiles": "COc1nn(C)c2nc(N)nc(NS(=O)(=O)c3cccc(Cl)c3Cl)c12", "quantitative.readout": 2.4}
{"cpd.smiles": "Cn1nc(NS(=O)(=O)c2cccc(Cl)c2Cl)c2ccccc21", "quantitative.readout": 4.6}
{"cpd.smiles": "CCOc1n[nH]c2ncnc(NS(=O)(=O)c3cccc(Cl)c3Cl)c12", "quantitative.readout": 2.3}
{"cpd.smiles": "O=S(=O)(Nc1ncnc2[nH]nc(O)c12)c1cccc(Cl)c1Cl", "quantitative.readout": 0.8}
{"cpd.smiles": "Cn1ncc2c(NS(=O)(=O)c3cccc(Cl)c3Cl)cccc21", "quantitative.readout": 3.2}
{"cpd.smiles": "COc1nn(C)c2ncnc(NS(=O)(=O)c3cccc(Cl)c3Cl)c12", "quantitative.readout": 2.4}
{"cpd.smiles": "COc1nn(C)c2cccc(NS(=O)(=O)c3cccc(Cl)c3Cl)c12", "quantitative.readout": 6.5}
{"cpd.smiles": "COc1nn(C2COC2)c2ncnc(NS(=O)(=O)c3cccc(Cl)c3Cl)c12", "quantitative.readout": 2.1}
{"cpd.smiles": "COc1nn(C)c2nc(NC3COC3)nc(NS(=O)(=O)c3cccc(Cl)c3Cl)c12", "quantitative.readout": 2.2}
{"cpd.smiles": "COCCOc1nn(C)c2ncnc(NS(=O)(=O)c3cccc(Cl)c3Cl)c12", "quantitative.readout": 2.3}
{"cpd.smiles": "COc1nn(C)c2nc(NCCN(C)C)nc(NS(=O)(=O)c3cccc(Cl)c3Cl)c12", "quantitative.readout": 1.4}
{"cpd.smiles": "CCNc1nc(NS(=O)(=O)c2cccc(Cl)c2Cl)c2c(OC)nn(C)c2n1", "quantitative.readout": 4.2}
{"cpd.smiles": "COc1nn(CC(N)=O)c2ncnc(NS(=O)(=O)c3cccc(Cl)c3Cl)c12", "quantitative.readout": 1.1}
{"cpd.smiles": "COCCn1nc(OC)c2c(NS(=O)(=O)c3cccc(Cl)c3Cl)ncnc21", "quantitative.readout": 2.6}
{"cpd.smiles": "COc1nc(NS(=O)(=O)c2cccc(Cl)c2Cl)c2c(OC)nn(C)c2n1", "quantitative.readout": 1.9}
{"cpd.smiles": "COc1nn(CCN(C)C)c2ncnc(NS(=O)(=O)c3cccc(Cl)c3Cl)c12", "quantitative.readout": 1.6}

Where these numbers come from: ChEMBL document CHEMBL4043167
